Test: Pharmacokinetic evaluation in CD-1 mice (i.g.)
Type: in vivo
Conditions: male, mouse, plasma, po, 100 mg/kg, read-out: Half-life T½ (converted)
Assay endpoint: half-life (h)
Expressed in h, but write only the number.

Note to self: half-life recorded for COc1c([C@H]2[C@H](C(=O)Nc3ccnc(C4(N)CC4)c3)O[C@@](C)(C(F)(F)F)[C@H]2C)ccc(F)c1F was 5.8

---

Test: Pharmacokinetic evaluation in CD-1 mice (i.g.)
Assay type: in vivo
Settings: male, mouse, plasma, po, 100 mg/kg, read-out: Plasma concentration Cmax
Procedure: CD-1 mice were used as test animals. After intragastric (i.g.) administration of the compound of the present disclosure to CD-1 mice, the plasma concentrations of the compound at different time points were determined by the LC/MS/MS method. The pharmacokinetic behavior of the compound of the present disclosure in CD-1 mice was studied, and its pharmacokinetic profile was evaluated. […]
Assay endpoint: Cmax (ng/mL)
Give a bare numeral; the unit ng/mL is implied.

Notebook: COc1c([C@H]2[C@H](C(=O)Nc3ccnc(C4(N)CC4)c3)O[C@@](C)(C(F)(F)F)[C@H]2C)ccc(F)c1F , Cmax read as 6280

---

Assay: Pharmacokinetic evaluation in SD rats (i.g.)
Format: in vivo
Settings: male, Sprague-Dawley (SD), rat, plasma, po, 50 mg/kg, read-out: Area under curve AUC0-t
Assay endpoint: AUC(0-t) (ng·h/mL)
Please reply with the bare figure in ng·h/mL and do not write the unit itself.

Lab note: measured AUC(0-t) of COc1c([C@H]2[C@H](C(=O)Nc3ccnc(C4(N)CC4)c3)O[C@@](C)(C(F)(F)F)[C@H]2C)ccc(F)c1F was 18400

---

Molecular target: Nav1.8 ion channel stably expressed on HEK293 cells (Homo sapiens (Human), UniProt Q9Y5Y9)
Assay: Inhibitory activity against Nav1.8, manual patch clamp
Details: resting protocol (-80 mV to 10 mV), 1 μM TTX, read-out: IC50 for the inhibition of Nav1.8 channel activity
With a cut-off of 1 nM, any IC50 strictly below it is called Satisfied; any IC50 meeting it or above is called Not satisfied.

Use the examples below as a reference point.
- COc1c([C@H]2[C@H](C(=O)Nc3ccnc(/C(N)=N/O)c3)O[C@@](C)(C(F)(F)F)[C@H]2C)ccc(F)c1F [Example 32]: Satisfied
- CO/N=C(\N)c1cc(NC(=O)[C@@H]2O[C@@](C)(C(F)(F)F)[C@@H](C)[C@H]2c2ccc(F)c(F)c2OC)ccn1 [Example 16]: Satisfied
- COc1c([C@H]2[C@H](C(=O)Nc3ccnc(C(C)(C)O)c3)O[C@@](C)(C(F)(F)F)[C@H]2C)ccc(F)c1F [Example 3]: Not satisfied

Shifting focus to the molecule that follows.
Prompt line: Consider the molecule CONC(=O)c1cc(NC(=O)[C@@H]2O[C@@](C)(C(F)(F)F)[C@@H](C)[C@H]2c2ccc(F)c(F)c2OC)ccn1 [Example 5] . Is its IC50 strictly less than 1 nM?
Response line: Satisfied

---

Test: Pharmacokinetic evaluation in dogs (i.g.)
Type: in vivo
Details: both sexes, dog, plasma, po, 2 mg/kg, read-out: Half-life T½ (converted)
Assay endpoint: half-life (h)
State the answer as a number, implicitly in h.

Looking up COc1c([C@H]2[C@H](C(=O)Nc3cc[n+]([O-])c(/C(N)=N/O)c3)O[C@@](C)(C(F)(F)F)[C@H]2C)ccc(F)c1F , I found its half-life recorded as 34.5
